Inhibition of NF-κB/DNA complex (MIC) overview
Molecular target: NF-κB p50 (Homo sapiens)
Construct: This assay was performed using purified NF-κB p50; purchased Promega
Sequence (P19838 1-433 limits assumed): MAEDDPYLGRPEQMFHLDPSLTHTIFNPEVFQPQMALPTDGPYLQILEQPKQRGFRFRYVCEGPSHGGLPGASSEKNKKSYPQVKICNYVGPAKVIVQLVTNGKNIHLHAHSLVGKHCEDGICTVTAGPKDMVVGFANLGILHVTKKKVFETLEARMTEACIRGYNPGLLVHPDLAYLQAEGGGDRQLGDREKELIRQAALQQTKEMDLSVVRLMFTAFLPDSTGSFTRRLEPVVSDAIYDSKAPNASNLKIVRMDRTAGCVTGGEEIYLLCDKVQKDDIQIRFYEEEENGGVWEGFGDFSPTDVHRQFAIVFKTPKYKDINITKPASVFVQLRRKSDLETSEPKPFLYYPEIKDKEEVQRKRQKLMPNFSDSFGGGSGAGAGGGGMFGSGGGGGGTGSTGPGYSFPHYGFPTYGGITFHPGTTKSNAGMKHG
Test: EMSA, inhibition of NF-κB/DNA interactions
Format: binding
Conditions: NF-κB p50 and 32P-labeled NF-κB oligonucleotide, MIC = minimal inhibitory concentration, 12.5 μM was the lowest concentration used
Description: Electrophoretic mobility shift assays were performed using double-stranded ^32P-labeled oligonucleotides as target DNA. […] The effects of TMA derivatives on NF-κB- (nuclear factor-kappaB-) mediated induction of proinflammatory genes was verified first in vitro by electrophoretic mobility shift assay (EMSA) with the aim to verify and quantify the possible inhibition of NF-κB/DNA interactions. […]

Recorded results for 2 compounds are shown here.
Qu. Identify the measured Inhibition of NF-κB/DNA complex (MIC) of COCc1cc(=O)oc2c1cc(C)c1scc(C)c12 [Compound 15] for NF-κB p50 (Homo sapiens).
Ans. > 100 µM

Qu. # returns recorded Inhibition of NF-κB/DNA complex (MIC) (system: NF-κB p50 (Homo sapiens)) for Cc1cc(=O)oc2c1cc(C)c1[nH]nnc12 [Compound 31]
Ans. 25 µM

Others:
Qu. Form entry - test system: NF-κB p50 (Homo sapiens); read-out: Inhibition of NF-κB/DNA complex (MIC); compound: Cc1cc(=O)oc2c1ccc1occ(C)c12 [Compound 11]
Ans. > 100 µM

Qu. Could you share what Inhibition of NF-κB/DNA complex (MIC) was measured for C=CCc1c(O)c(C)cc2c(CO)cc(=O)oc12 [Compound 38] , tested on NF-κB p50 (Homo sapiens)?
Ans. 25 µM

Qu. State its Inhibition of NF-κB/DNA complex (MIC) on NF-κB p50 (Homo sapiens): COCc1oc2c(C)cc3c(C)cc(=O)oc3c2c1C [Compound 3]
Ans. > 100 µM

Qu. # get_value(readout= Inhibition of NF-κB/DNA complex (MIC), system= NF-κB p50 (Homo sapiens)) for Cc1coc2c1c1occ(C)c1c1oc(=O)cc(C)c21 [Compound 29]
Ans. <12.5 (^∗) μM

Qu. Lab note: need Inhibition of NF-κB/DNA complex (MIC) for Cc1cc2c(CBr)cc(=O)oc2c2c(C)coc12 [Compound 10] on NF-κB p50 (Homo sapiens), anyone have it?
Ans. < 12.5 µM

###

system: IB3-1 cells; assay: Cell proliferation assay on IB3-1 cells; type: cell-based; details: Homo sapiens, cell number/ml after 48 h of treatment
readout.kind: IC50 (µM)
Quick note: give the figure in µM, leave out the unit.

Recorded results for 5 molecules are shown here.
Qu. Look up IC50 for this molecule: Cc1oc2c(C)cc3c(C)cc(=O)oc3c2c1CO [Compound 23]
Ans. 452

Qu. Value lookup for IC50; key = Cc1cc(=O)oc2c1cc(C)c1occ(CBr)c12 [Compound 5]
Ans. 486

Qu. # query: IC50 of entry Cc1cc2c(C)cc(=O)oc2c2c1OCC=C2 [Compound 35]
Ans. 137

Qu. Consider the molecule shown here: Cc1cc(=O)oc2c1ccc1oc(CN)cc12 [Compound 26] What is its recorded IC50?
Ans. 90.8

Qu. So what's the measured IC50 for this one? C=CCc1c(O)c(C)cc2c(CO)cc(=O)oc12 [Compound 38]
Ans. 506

Next:
Qu. If you can, please state the reported IC50 value of Cc1cc(=O)oc2c1cc(C)c1occ(C)c12 [TMA, 4,6,4′-trimethylangelicin, reference compound] .
Ans. 185

Qu. # get_value(readout='IC50', item= Cc1cc2c(CO)cc(=O)oc2c2cc(CO)oc12 [Compound 24] )
Ans. 197

Qu. What measured IC50 goes with Cc1cc(=O)oc2c3c(ccc12)OC(C)C3 (stereo not shown) [Compound 20] ?
Ans. 154

Cited source for all entries: paper PMC5635289
